- TARGET OR SYSTEM: T1, BMP-12 (UniProt Q7Z4P5 322-450, limits assumed)
- T1 construct: also called BMP12/GDF7
- T1 sequence (looked up): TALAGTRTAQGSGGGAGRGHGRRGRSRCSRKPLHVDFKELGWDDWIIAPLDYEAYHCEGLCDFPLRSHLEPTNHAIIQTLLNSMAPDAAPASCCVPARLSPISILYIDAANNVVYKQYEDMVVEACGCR
- PROCEDURE SUMMARY: peptide resin, filter plate; load 1: 50 mM Acetic Acid, 0.1 M NaCl, pH 2.9
No end group written: not given here.
Some binders, each annotated with its measured 100 mM HAc elution conc.
Give just the numeric value; mg/mL need not be written.

Sample answers from the record:
[[record]]
binder = "Ac-LYVSDVGWNDWIVK (not fully specified (residue 3); printed as Ac-LYV**SDVGWNDWIVK; also: ** after V3 not explained) [BMP2 C-trunc_2 peptide 746]"
result_unit = "mg/mL"
observed_measurement = 0.154

[[record]]
binder = "Ac-SDVGWNDWIVAPPGYHAFYSHGEK [BMP2 N-trun 1S peptide 751]"
result_unit = "mg/mL"
observed_measurement = 0.102

[[record]]
binder = "Ac-RDLGWQDWIIAPEGYAAFYSDGEK [BMP5 peptide 748]"
result_unit = "mg/mL"
observed_measurement = 0.123

[[record]]
binder = "Ac-VAPPGYHAFYSHGEK [BMP2 N-trunc_2 peptide 745]"
result_unit = "mg/mL"
observed_measurement = 0.058

[[record]]
binder = "Ac-ELGWDDWIIAPLDYEAYHSEGLK [BMP12 N-trun_1S peptide 749]"
result_unit = "mg/mL"
observed_measurement = 0.098


// 100 mM HAc elution conc lookup, binder = Ac-LYVDFSDVGWNDWIVAPPGYHAFYSHGEK [BMP2 Full peptide 747] , result: 0.123

// field: 100 mM HAc elution conc; key: Ac-SDVGWNDWIVAPPGYHAFYCHGEK [BMP2 N-trun peptide 750] ; value = 0.096
